Entries and their inhibition values follow.
# Target Or System: ALK tyrosine kinase receptor (Homo sapiens)
# Condition Context: at 0.1 µM
# Description: GSK_PKIS: ALK mean inhibition at 0.1 uM [Nanosyn]
Your answer should be a plain number; it is taken to be in %.

Previously resolved entries follow.
> print(dat)
                               given.smiles  measurement.type  quantity.unit   val
1  NS(=O)(=O)c1cccc(Nc2cc(-c3ccc(F)cc3)n[nH]2)c1        inhibition              %   1.3
2  CS(=O)(=O)CCNCc1nc(-c2ccc3ncnc(Nc4ccc(OCc5cccc(C(F)(F)F)c5)cc4)c3c2)cs1        inhibition              %  2.68

API: the following record is the query input.
Which value of inhibition has been reported for CN(C)CCCn1c(-c2nonc2N)nc2cnccc21 in the records?
2.82

====

# Target Or System: Insulin receptor-related protein (Homo sapiens) (UniProt P14616);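 also: each reported figure is the mean of the IRR inhibition readings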
# Sequence (P14616 27-742 limits assumed): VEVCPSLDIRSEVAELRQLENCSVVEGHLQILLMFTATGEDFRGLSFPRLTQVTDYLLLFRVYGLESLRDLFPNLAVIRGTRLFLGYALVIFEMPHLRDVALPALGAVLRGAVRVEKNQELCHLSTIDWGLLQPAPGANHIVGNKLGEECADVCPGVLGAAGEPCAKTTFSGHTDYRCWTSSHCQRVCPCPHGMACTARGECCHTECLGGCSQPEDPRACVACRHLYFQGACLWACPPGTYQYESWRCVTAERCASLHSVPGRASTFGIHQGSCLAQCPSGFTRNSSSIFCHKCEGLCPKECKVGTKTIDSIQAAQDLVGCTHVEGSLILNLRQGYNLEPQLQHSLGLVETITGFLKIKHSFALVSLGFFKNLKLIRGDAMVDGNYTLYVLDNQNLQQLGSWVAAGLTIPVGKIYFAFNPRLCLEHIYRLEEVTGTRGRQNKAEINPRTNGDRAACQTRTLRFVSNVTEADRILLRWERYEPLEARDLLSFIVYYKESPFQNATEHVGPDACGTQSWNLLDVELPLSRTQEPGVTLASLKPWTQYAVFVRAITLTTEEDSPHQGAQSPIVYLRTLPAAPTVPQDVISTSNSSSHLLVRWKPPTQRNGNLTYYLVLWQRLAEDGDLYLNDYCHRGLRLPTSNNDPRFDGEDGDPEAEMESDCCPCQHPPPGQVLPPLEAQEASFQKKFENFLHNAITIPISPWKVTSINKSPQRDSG
# Sequence (P14616 747-1297 limits assumed): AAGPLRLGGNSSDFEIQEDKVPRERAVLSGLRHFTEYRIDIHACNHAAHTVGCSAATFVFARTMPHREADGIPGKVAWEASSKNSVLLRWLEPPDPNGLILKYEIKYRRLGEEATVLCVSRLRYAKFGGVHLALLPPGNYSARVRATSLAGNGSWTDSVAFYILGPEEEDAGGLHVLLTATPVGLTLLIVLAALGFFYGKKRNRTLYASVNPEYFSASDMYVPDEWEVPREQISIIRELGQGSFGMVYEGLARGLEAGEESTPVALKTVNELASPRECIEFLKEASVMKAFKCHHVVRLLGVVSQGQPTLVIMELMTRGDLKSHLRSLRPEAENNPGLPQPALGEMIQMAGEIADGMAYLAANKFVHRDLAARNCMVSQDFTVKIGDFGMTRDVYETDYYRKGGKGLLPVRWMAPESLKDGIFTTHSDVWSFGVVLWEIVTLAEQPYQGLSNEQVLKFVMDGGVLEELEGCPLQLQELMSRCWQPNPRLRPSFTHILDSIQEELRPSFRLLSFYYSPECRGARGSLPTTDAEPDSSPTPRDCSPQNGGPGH
# Condition Context: at 1 µM
Entries and their inhibition values follow.
Your answer should be a plain number; it is taken to be in %.

> print(dat)
                               given.smiles                          target.or.system  measurement.type   val
1  OCc1ccc(-c2nc(-c3ccccn3)c(-c3ccc4c(c3)OCO4)[nH]2)cc1  Insulin receptor-related protein (Homo sapiens) (UniProt P14616)        inhibition   1.6
2  Oc1cccc(-c2nc(-c3ccccc3)[nH]c2-c2ccncc2)c1  Insulin receptor-related protein (Homo sapiens) (UniProt P14616)        inhibition  0.88
3  O=S(=O)(CCOCc1ccc(-c2ccc3ncnc(Nc4ccc(OCc5cccc(F)c5)c(Cl)c4)c3c2)o1)c1ccccc1  Insulin receptor-related protein (Homo sapiens) (UniProt P14616)        inhibition  0.31
4  Cc1cc(-c2ccccn2)cc(C)c1/C=C/c1cncc(-c2nn[nH]n2)c1  Insulin receptor-related protein (Homo sapiens) (UniProt P14616)        inhibition  2.24

Which value of inhibition has been reported for Cc1ccc2c(c1)/C(=N/Nc1ccc(S(N)(=O)=O)cc1)C(=O)N2 in the records?
-0.18

Which value of inhibition has been reported for CN(C)C(=O)O[C@H]1CN[C@H](C#Cc2cc3ncnc(Nc4ccc(OCc5cccc(F)c5)c(Cl)c4)c3s2)C1 in the records?
1.4

Which value of inhibition has been reported for Cc1ccc(NC(=O)CC2CC2)cc1-c1ccc(C(=O)NCC2CC2)cc1 in the records?
3.28

Which value of inhibition has been reported for NS(=O)(=O)c1ccc(-c2cc3ccncc3cc2OCc2ccccc2)cc1 in the records?
2.61

Which value of inhibition has been reported for Cc1ccc(C(=O)NC2CC2)cc1-c1ccc2[nH]ncc2c1 in the records?
-4.42

Which value of inhibition has been reported for COC(=O)Nc1nc2cc(Oc3ccc(NC(=O)Nc4cccc(Br)c4)cc3)ccc2[nH]1 in the records?
-1.05

Which value of inhibition has been reported for c1ccc(Nc2ncc(-c3ccccc3)o2)cc1 in the records?
2.61

====

Entries and their inhibition values follow.
# Target Or System: Serine/threonine-protein kinase 26 (Homo sapiens)
# Condition Context: at 0.1 µM
# Description: GSK_PKIS: MST4 mean inhibition at 0.1 uM [Nanosyn]
Your answer should be a plain number; it is taken to be in %.

Previously resolved entries follow.
> print(dat)
                               given.smiles  measurement.type    val
1  Cc1ccc(Nc2ccnc(Nc3cccc(C(N)=O)c3)n2)cc1O        inhibition   0.27
2  Cc1ccc(NC(=O)CC2CC2)cc1-c1ccc(C(=O)NCC2CC2)cc1        inhibition   0.36
3  CCn1c(-c2nonc2N)nc2c(C#CC(C)(C)O)nc(OCCNC)cc21        inhibition  -3.54
4   COc1ccc2ncnc(Nc3ccc(OCc4ccccc4)cc3)c2c1        inhibition  -1.91
5  NS(=O)(=O)c1cccc(Nc2cc(-c3ccc(F)cc3)n[nH]2)c1        inhibition  -0.02

Which value of inhibition has been reported for C[C@@H](Oc1cc(-n2cnc3ccc(OC[C@@H](O)CO)cc32)sc1C(N)=O)c1ccccc1Cl in the records?
-0.27

Which value of inhibition has been reported for Oc1cccc(-c2nc(-c3ccccc3)[nH]c2-c2ccncc2)c1 in the records?
0.83
